# system: T1, 4H349-bN
# T1 chain: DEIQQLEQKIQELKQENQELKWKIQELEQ
# measurement.description: two-hybrid library CCNG1;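 also: natural log of median RNA to DNA barcode read ratio; higher means stronger binding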
// reported interaction score per item
In your answer, state the number alone without any accompanying words.

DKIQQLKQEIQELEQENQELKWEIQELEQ [4H2585-bN] : 1.61
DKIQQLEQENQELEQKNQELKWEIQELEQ [4H2233-bN] : -0.452
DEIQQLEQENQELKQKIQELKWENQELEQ [4H235-bN] : -0.0107

Name the reported interaction score value associated with the binder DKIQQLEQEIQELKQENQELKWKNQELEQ [4H2143-bN] 0.196

Name the reported interaction score value associated with the binder DKIQQLKQKIQELEQKIQELKWENQELEQ [4H2859-bN] -1.06

Name the reported interaction score value associated with the binder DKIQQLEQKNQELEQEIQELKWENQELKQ [4H2444-bN] -0.375

Name the reported interaction score value associated with the binder DKIQQLKQKIQELKQKNQELEWENQELEQ [4H2931-bN] -1.08

Name the reported interaction score value associated with the binder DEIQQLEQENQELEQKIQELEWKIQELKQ [4H166-bN] -0.759

Name the reported interaction score value associated with the binder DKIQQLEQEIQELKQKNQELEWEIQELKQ [4H2162-bN] 0.391

Name the reported interaction score value associated with the binder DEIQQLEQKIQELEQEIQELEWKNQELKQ [4H264-bN] 0.605

Name the reported interaction score value associated with the binder DKIQQLKQKNQELKQKIQELEWEIQELEQ [4H3041-bN] -1.54

Name the reported interaction score value associated with the binder DKNQQLEQKIQELEQKNQELEWKIQELEQ [4H3381-bN] -0.946

Name the reported interaction score value associated with the binder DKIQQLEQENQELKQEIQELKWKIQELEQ [4H2253-bN] -0.821

Name the reported interaction score value associated with the binder DKNQQLEQKIQELEQKIQELEWENQELKQ [4H3364-bN] -0.763

Recorded values, source paper PMC10397247.
